Source listed as PubChem BioAssay (Tox21).

- Tgt: D(2) dopamine receptor (Homo sapiens)
- Run description: Dopamine D2 receptor (DRD2) small molecule antagonists, cell-based qHTS assay (AID 1963595); also: % is scaled to controls: 0 for no effect and ±100 for the full control effect
- Study conditions: HEK293-DRD2 cAMP HTRF antagonist mode; series mostly up to 92.4 µM
Records with an inconclusive call do not appear. Activity calls are given as the source filed them. Calls follow the shape of the dose curve; as a rule, active = well fitted inhibition curve with a large enough effect in the signal ratio in the repeat runs, with a control signal flat; inconclusive = weak or mixed curves, or effect the other way; inactive = flat fitted curve, though single readings scatter; the % refers to the signal ratio.
Experimental readout: activity change, negative = inhibition

> print(dat)
                              compound                    experimental.readout  test.result
1                        Cc1cccc(C)c1C  activity change, negative = inhibition     inactive
2  CCCCOC(=O)C(C)CC (stereo not drawn)  activity change, negative = inhibition     inactive
3        Cc1cccc(C)c1NC(=O)c1ccc(N)cc1  activity change, negative = inhibition     inactive
4                      CCCCCCOC(=O)CCC  activity change, negative = inhibition     inactive
5                        CCc1cccc(C)c1  activity change, negative = inhibition     inactive
6       CCCCOc1ccc(C(=O)CCN2CCCCC2)cc1  activity change, negative = inhibition     inactive

Exercise: GET /values?readout=activity change, negative = inhibition&item= C=CC1CO1 (stereo not drawn)
Key: inactive

Exercise: Lookup `COc1ccc(CN(CCN(C)C)c2ncccn2)cc1`
Key: inactive

---

- Run description: p53 small molecule agonists, cell-based qHTS assay: qHTS cell viability counter screen (AID 1963581); also: % is scaled to controls: 0 for no effect and ±100 for the full control effect; nearly all actives have a fitted effect of over 45% in size
- Study conditions: p53RE-bla HCT-116 viability, ATP luminescence, 16 h; series mostly up to 66 µM
Records with an inconclusive call do not appear. Active and inactive are the calls of the source. The call rests on the fitted dose curve.
Experimental readout: activity change, negative = cytotoxicity

> print(dat)
                                   compound                      experimental.readout                    test.result
1                        O=C(O)CCCCCCC(=O)O  activity change, negative = cytotoxicity                       inactive
2            Oc1cn2c(n1)Nc1ccc(Cl)c(Cl)c1C2  activity change, negative = cytotoxicity  -7.7% [at 13.5 µM] (inactive)
3                     CC(=O)CC(=O)OC(C)(C)C  activity change, negative = cytotoxicity                       inactive
4  CC1=C(C)C(=O)C(C(CCCCCC(=O)O)c2ccccc2)=C(C)C1=O (stereo unspecified)  activity change, negative = cytotoxicity                       inactive
5  CCCCC(=O)OCC(=O)[C@H]1[C@H](C)C[C@H]2[C@@H]3C[C@H](F)C4=CC(=O)C=C[C@]4(C)[C@@]3(F)[C@@H](O)C[C@@]21C  activity change, negative = cytotoxicity                       inactive

Could you now consider this next compound?
Exercise: GET /values?readout=activity change, negative = cytotoxicity&item= `CCCCCCCCCCCCN1CCOCC1`
Key: inactive

---

- Run description: G protein-coupled receptor (GPCR) small molecule agonists, calcium flux assay: HEK293 wild type cell line counter screen (AID 1920065); also: % is scaled to controls: 0 for no effect and ±100 for the full control effect
- Study conditions: HEK293 WT calcium flux, fluorescence, agonist mode; series mostly up to 57.6 µM
The source made the active and inactive calls. The call rests on the fitted dose curve.
Experimental readout: activation

> print(dat)
                                   compound  experimental.readout  test.result
1  CCCCN(CCCC)C(C(N)=O)c1ccc(OC)cc1 (configuration not stated)            activation     inactive
2  CC(C)(C)NCC(O)COc1ccc(NC(=O)NC2CCCCC2)cc1 (configuration not stated)            activation     inactive
3  O=C1OC(O)C(C(Cl)Cl)=C1Cl (configuration not stated)            activation     inactive
4                             CCC(CC)C(=O)O            activation     inactive
5             N#CSc1ccc(N)c([N+](=O)[O-])c1            activation     inactive

Exercise: GET /values?readout=activation&item= CCNC(=O)C(C)OC(=O)Nc1ccccc1 (configuration not stated)
Key: inactive

Exercise: Lookup `CCCCCN=C(N)N/N=C/c1c[nH]c2ccc(OC)cc12`
Key: inactive
